Recorded IC50 by entry
test system: NIH3T3; assay: MTT cytotoxicity assay; assay type: cell-based; conditions: Mus musculus, NIH3T3, 48 h
Kindly provide the numeric value in µM only, without the unit symbol.

Some compounds with recorded IC50:
> print(dat)
                                   compound  attribute.measured  value.reported
1  CCCCN1CCN(c2ccc3[nH]c(-c4ccc5[nH]c(-c6ccc(C(F)(F)F)cc6)nc5c4)nc3c2)CC1 [12b]                IC50             3.2
2  CCCCN1CCN(c2ccc3[nH]c(-c4ccc5[nH]c(-c6ccc(OCC)c(OCC)c6)nc5c4)nc3c2)CC1 [12a]                IC50             8.2

Let us move to another entry and its IC50.
Incoming: Query (compound): CCCN1CCN(c2ccc3[nH]c(-c4ccc5[nH]c(-c6ccc(OCC)c(OCC)c6)nc5c4)nc3c2)CC1 [11a] ; field requested: IC50
Outgoing: 2.3

----------
The following molecules are shown together with reported Ka binding affinity with oligo-1 values.
test system: oligo-1: d(CGCGAATTCGCG)2; experiment: Fluorescence titration; type: binding; conditions: 20 °C, pH 7.2

> print(dat)
                                   molecule  value.reported
1  COc1ccc(OC)c(-c2nc3ccc(-c4nc5ccc(N6CCN(CCN(C)C)CC6)cc5[nH]4)cc3[nH]2)c1 [13c]   5 × 10^6 M^–1

Incoming: Could you share which Ka binding affinity with oligo-1 value was measured for COc1cc(-c2nc3ccc(-c4nc5ccc(N6CCN(CCN(C)C)CC6)cc5[nH]4)cc3[nH]2)cc(OC)c1OC [13d] ?
Outgoing: 5 × 10^6 M^–1

Incoming: What value of Ka binding affinity with oligo-1 has been recorded for this entry: CCCN1CCN(c2ccc3nc(-c4ccc5nc(-c6cc(OC)ccc6OC)[nH]c5c4)[nH]c3c2)CC1 [11c]
Outgoing: 7 × 10^6 M^–1

Incoming: Fill in the blank: the reported Ka binding affinity with oligo-1 of CCCN1CCN(c2ccc3[nH]c(-c4ccc5[nH]c(-c6ccc(C(F)(F)F)cc6)nc5c4)nc3c2)CC1 [11b] is ____.
Outgoing: 7 × 10^6 M^–1

Incoming: I would be grateful if you could share the reported Ka binding affinity with oligo-1 for CCOc1ccc(-c2nc3ccc(-c4nc5ccc(N6CCN(C)CC6)cc5[nH]4)cc3[nH]2)cc1 [Hoechst 33342, reference compound] .
Outgoing: 2 × 10^7 M^–1

Incoming: Please look up its Ka binding affinity with oligo-1: CCOc1ccc(-c2nc3cc(-c4nc5cc(N6CCN(C)CC6)ccc5[nH]4)ccc3[nH]2)cc1OCC [10a]
Outgoing: 7 × 10^6 M^–1

Incoming: Give its Ka binding affinity with oligo-1 value. Item: CCOc1ccc(-c2nc3ccc(-c4nc5ccc(N6CCN(CCN(C)C)CC6)cc5[nH]4)cc3[nH]2)cc1OCC [13a]
Outgoing: 9 × 10^6 M^–1

Incoming: For COc1ccc(OC)c(-c2nc3ccc(-c4nc5ccc(N6CCN(C)CC6)cc5[nH]4)cc3[nH]2)c1 [10c] , what is its reported Ka binding affinity with oligo-1?
Outgoing: 8 × 10^6 M^–1

Incoming: What value of Ka binding affinity with oligo-1 has been reported for the following molecule? CCCN1CCN(c2ccc3[nH]c(-c4ccc5[nH]c(-c6ccc(OCC)c(OCC)c6)nc5c4)nc3c2)CC1 [11a]
Outgoing: 3 × 10^7 M^–1

Incoming: Look up Ka binding affinity with oligo-1: CN1CCN(c2ccc3[nH]c(-c4ccc5[nH]c(-c6ccc(C(F)(F)F)cc6)nc5c4)nc3c2)CC1 [10b]
Outgoing: 7 × 10^6 M^–1

Incoming: Bench note: what Ka binding affinity with oligo-1 did CCCCN1CCN(c2ccc3[nH]c(-c4ccc5[nH]c(-c6ccc(C(F)(F)F)cc6)nc5c4)nc3c2)CC1 [12b] show?
Outgoing: 1 × 10^7 M^–1

Incoming: Requested field: Ka binding affinity with oligo-1. Item: CCCCN1CCN(c2ccc3[nH]c(-c4ccc5[nH]c(-c6ccc(OCC)cc6)nc5c4)nc3c2)CC1 [12e]
Outgoing: 1 × 10^7 M^–1

Incoming: Requested field: Ka binding affinity with oligo-1. Item: CCCCN1CCN(c2ccc3[nH]c(-c4ccc5[nH]c(-c6ccc(OCC)c(OCC)c6)nc5c4)nc3c2)CC1 [12a]
Outgoing: 1 × 10^7 M^–1

----------
biological target: Hu Topo I (Homo sapiens)
Sequence (P11387 whole entry): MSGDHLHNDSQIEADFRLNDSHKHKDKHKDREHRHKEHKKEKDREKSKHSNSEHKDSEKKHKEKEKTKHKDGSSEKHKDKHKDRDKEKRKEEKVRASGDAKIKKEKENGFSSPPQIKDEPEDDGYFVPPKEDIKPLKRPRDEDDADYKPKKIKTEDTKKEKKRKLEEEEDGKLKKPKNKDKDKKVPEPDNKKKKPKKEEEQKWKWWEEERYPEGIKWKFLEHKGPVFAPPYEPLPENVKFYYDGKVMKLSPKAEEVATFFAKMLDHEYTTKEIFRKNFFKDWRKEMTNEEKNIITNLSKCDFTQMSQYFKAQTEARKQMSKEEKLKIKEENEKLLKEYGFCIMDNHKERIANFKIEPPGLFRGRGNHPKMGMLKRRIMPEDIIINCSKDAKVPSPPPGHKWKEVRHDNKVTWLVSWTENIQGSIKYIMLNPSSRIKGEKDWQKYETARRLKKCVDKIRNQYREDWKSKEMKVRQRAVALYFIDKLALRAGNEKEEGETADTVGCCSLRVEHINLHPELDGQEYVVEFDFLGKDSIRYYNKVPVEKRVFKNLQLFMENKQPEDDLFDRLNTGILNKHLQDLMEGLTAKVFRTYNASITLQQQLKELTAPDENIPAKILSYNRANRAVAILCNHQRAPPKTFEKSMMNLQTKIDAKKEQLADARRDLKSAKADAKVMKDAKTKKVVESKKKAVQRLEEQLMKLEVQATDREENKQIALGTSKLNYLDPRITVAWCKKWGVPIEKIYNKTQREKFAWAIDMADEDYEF
Attribute measured: pIC50
pIC50 is defined as minus the log10 of a concentration measured in mol/L.

Incoming: # returns recorded pIC50 (system: Hu Topo I (Homo sapiens)) for CCCCN1CCN(c2ccc3[nH]c(-c4ccc5[nH]c(-c6ccc(C(F)(F)F)cc6)nc5c4)nc3c2)CC1 [12b]
Outgoing: 4.80

Measured values drawn from paper PMC8793051 for this set.
